Where do the numbers come from? From the supplement of paper PMC9233669.

For each of the sequences below, state its self-aminoacylation.
system: biotinyl-Phe-oxazolone; assay: self-aminoacylation, catalytic enhancement (BFO) (fold over background); higher = more active; k-Seq, kA / k0A0; sequences stand for … in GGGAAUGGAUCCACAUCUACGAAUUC…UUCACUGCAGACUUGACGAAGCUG
Fewer inactive variants are shown than the library holds.
Lab note: record the figure alone, no unit after it.

Task: Dear colleague, I am looking for the recorded self-aminoacylation of the following sequence: CCACGCGUCAAGCAAUCGGUC [Fam1B.1 aminoacylation ribozyme variant]
Output: 0.748

Task: Dear colleague, I am looking for the recorded self-aminoacylation of the following sequence: AUUCACAUAGGUCAGCGGGUG [Fam2.2 aminoacylation ribozyme variant]
Output: 22.6

Task: Dear colleague, I am looking for the recorded self-aminoacylation of the following sequence: AAGUUUGCUAAUAUUCGCGAG [Fam3.1 aminoacylation ribozyme variant]
Output: 16.5

Task: Dear colleague, I am looking for the recorded self-aminoacylation of the following sequence: AUUACCCUGGUCAUCGAGAUA [Fam2.1 aminoacylation ribozyme variant]
Output: 7.71

Task: Dear colleague, I am looking for the recorded self-aminoacylation of the following sequence: AUUCACCUACGUCUUCGGGUG [Fam2.2 aminoacylation ribozyme variant]
Output: 24

Task: Dear colleague, I am looking for the recorded self-aminoacylation of the following sequence: AAUCACCUAUGUCAUCGGGUG [Fam2.2 aminoacylation ribozyme variant]
Output: 23.4

Task: Dear colleague, I am looking for the recorded self-aminoacylation of the following sequence: AUGUUUGCUAAUAGUCGCGAG [Fam3.1 aminoacylation ribozyme variant]
Output: 3.75

Task: Dear colleague, I am looking for the recorded self-aminoacylation of the following sequence: AUUACCCUGGUCAUAGAGUGG [Fam2.1 aminoacylation ribozyme variant]
Output: 3.37

Task: Dear colleague, I am looking for the recorded self-aminoacylation of the following sequence: AAGUUUGCUAAUAGUCGCUAG [Fam3.1 aminoacylation ribozyme variant]
Output: 1.68

* * *

tested on: biotinyl-Ile-oxazolone; experiment: self-aminoacylation, catalytic enhancement (BIO) (fold over background); higher = more active; k-Seq, kA / k0A0; sequences stand for … in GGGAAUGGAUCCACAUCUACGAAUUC…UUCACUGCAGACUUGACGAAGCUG
This sample holds only a part of the variants without activity.
For each of the sequences below, state its self-aminoacylation.
Lab note: record the figure alone, no unit after it.

Task: Dear colleague, I am looking for the recorded self-aminoacylation of the following sequence: GCGCACUUCAAGCAAUCGGUC [Fam1B.1 aminoacylation ribozyme variant]
Output: 2.12

Task: Dear colleague, I am looking for the recorded self-aminoacylation of the following sequence: AAAUUUGCUCAUAGUCGCAAG [Fam3.1 aminoacylation ribozyme variant]
Output: 1.76

Task: Dear colleague, I am looking for the recorded self-aminoacylation of the following sequence: AAGUUUGAUAAUAGUCACAAG [Fam3.1 aminoacylation ribozyme variant]
Output: 0.649

Task: Dear colleague, I am looking for the recorded self-aminoacylation of the following sequence: AAGUUUGGUAAUAGUCGCAAC [Fam3.1 aminoacylation ribozyme variant]
Output: 1.48

Task: Dear colleague, I am looking for the recorded self-aminoacylation of the following sequence: AUUACCGAGGUCAUCGAGUGA [Fam2.1 aminoacylation ribozyme variant]
Output: 3.99

Task: Dear colleague, I am looking for the recorded self-aminoacylation of the following sequence: CUACUUCAAACAAUCGUUCUU [Fam1A.1 aminoacylation ribozyme variant]
Output: 0.712

Task: Dear colleague, I am looking for the recorded self-aminoacylation of the following sequence: AUUACCCUGGUCAUAUAGUGA [Fam2.1 aminoacylation ribozyme variant]
Output: 5.04

Task: Dear colleague, I am looking for the recorded self-aminoacylation of the following sequence: AUUAACCUGGUAAUCGAGUGA [Fam2.1 aminoacylation ribozyme variant]
Output: 3.86

Task: Dear colleague, I am looking for the recorded self-aminoacylation of the following sequence: CGACACUACAAGCAAUCGGUC [Fam1B.1 aminoacylation ribozyme variant]
Output: 0.935

Task: Dear colleague, I am looking for the recorded self-aminoacylation of the following sequence: CAGCACUUCAAGCAAUCGGUC [Fam1B.1 aminoacylation ribozyme variant]
Output: 1.67

Task: Dear colleague, I am looking for the recorded self-aminoacylation of the following sequence: AUUACCCUGGUCAUCUAGUCA [Fam2.1 aminoacylation ribozyme variant]
Output: 0.753

Task: Dear colleague, I am looking for the recorded self-aminoacylation of the following sequence: AAGUUCGCUAAUAUUCGCAAG [Fam3.1 aminoacylation ribozyme variant]
Output: 1.71

Task: Dear colleague, I am looking for the recorded self-aminoacylation of the following sequence: AAAUUUGCUAAUAGUCGCCAG [Fam3.1 aminoacylation ribozyme variant]
Output: 2.08

Task: Dear colleague, I am looking for the recorded self-aminoacylation of the following sequence: AGACUUCAAACAAUCGGUCUG [Fam1A.1 aminoacylation ribozyme variant]
Output: 2.06

Task: Dear colleague, I am looking for the recorded self-aminoacylation of the following sequence: CUACUUCAAACAAUCUGGCUG [Fam1A.1 aminoacylation ribozyme variant]
Output: 0.963

Task: Dear colleague, I am looking for the recorded self-aminoacylation of the following sequence: CUACUUCAAACGCUCGGUCUG [Fam1A.1 aminoacylation ribozyme variant]
Output: 0.741

Task: Dear colleague, I am looking for the recorded self-aminoacylation of the following sequence: AUUACCCUGGUCAACGACUGA [Fam2.1 aminoacylation ribozyme variant]
Output: 0.653

Task: Dear colleague, I am looking for the recorded self-aminoacylation of the following sequence: CCACACUUUAAGCGAUCGGUC [Fam1B.1 aminoacylation ribozyme variant]
Output: 1.13
